Values were extracted from paper PMC7673487.

- Assayed system: T1, recombinant human NRP-1 protein (human, UniProt O14786 22-856)
- T1 sequence (looked up): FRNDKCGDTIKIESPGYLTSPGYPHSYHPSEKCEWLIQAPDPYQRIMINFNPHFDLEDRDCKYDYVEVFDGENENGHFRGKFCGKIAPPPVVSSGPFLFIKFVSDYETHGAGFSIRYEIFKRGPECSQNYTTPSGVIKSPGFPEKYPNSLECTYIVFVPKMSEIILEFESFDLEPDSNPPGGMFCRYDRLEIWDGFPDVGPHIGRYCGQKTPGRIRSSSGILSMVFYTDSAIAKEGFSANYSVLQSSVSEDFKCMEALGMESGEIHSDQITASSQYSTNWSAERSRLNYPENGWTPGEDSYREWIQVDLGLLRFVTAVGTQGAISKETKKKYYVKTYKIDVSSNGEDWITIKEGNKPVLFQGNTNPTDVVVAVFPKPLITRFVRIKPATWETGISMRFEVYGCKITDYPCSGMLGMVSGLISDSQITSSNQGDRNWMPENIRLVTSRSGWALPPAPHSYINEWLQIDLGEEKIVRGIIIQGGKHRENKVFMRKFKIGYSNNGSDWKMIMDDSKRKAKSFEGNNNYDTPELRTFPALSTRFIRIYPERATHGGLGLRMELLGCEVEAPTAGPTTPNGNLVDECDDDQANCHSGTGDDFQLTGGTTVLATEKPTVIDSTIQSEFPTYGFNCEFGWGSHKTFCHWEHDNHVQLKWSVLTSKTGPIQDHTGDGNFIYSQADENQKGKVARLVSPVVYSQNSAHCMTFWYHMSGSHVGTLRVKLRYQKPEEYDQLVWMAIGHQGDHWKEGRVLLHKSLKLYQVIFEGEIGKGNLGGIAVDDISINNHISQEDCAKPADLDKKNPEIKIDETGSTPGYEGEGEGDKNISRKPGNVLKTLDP
- Test: SPR

>  <Binder>
KDKPPR [KDKPPR peptide]

>  <Unit label>
nM

>  <Kd>
500

$$$$
